# Tested on: giant foxtail (Setaria faberii)
# experiment notes: Test D pre-/postemergence plant response
# Assay type: in vivo
# assay conditions: Preemergence; 16 g ai/ha; scale 0 to 100 (0 no effect, 100 complete control)
quantity: Plant response rating, Foxtail, Giant
Keep it simple and answer with nothing but the number.

FC(F)(F)c1cc(-c2ccccc2Oc2ncc(Cl)cn2)ncn1 0
FC(F)c1cc(-c2c(Cl)cccc2Oc2ncc(Cl)cn2)no1 5
Clc1cnc(Oc2ccccc2-c2cc(C3CC3)on2)nc1 5
FCc1cc(-c2c(F)cccc2Oc2ncc(Cl)cn2)no1 50

Look up and report measured Plant response rating, Foxtail, Giant for this entry: COc1cccc(Oc2ncc(Cl)cn2)c1-c1cc(C(F)(F)F)no1
30

====

Each item that follows carries a reported pest or weed control at 62 g/ha.
# Tested on: green foxtail (Setaria viridis)
# experiment notes: Test F pre-/postemergence plant response
# Assay type: in vivo
# assay conditions: Setaria viridis, pre-emergence; Preemergence; scale 0 to 100; read-out: Plant response rating, Foxtail, Green
Give your result in % as a bare value.

Give pest or weed control at 62 g/ha for this entry on green foxtail (Setaria viridis): FC(F)c1cc(-c2ccccc2Oc2ncc(Cl)cn2)on1
20

====

# System: blackgrass (Alopecurus myosuroides)
# experiment notes: Test D pre-/postemergence plant response
# Type: in vivo
# assay conditions: Preemergence, 125 g ai/ha
quantity: Plant response rating (scale 0 to 100), Blackgrass
Number only, please.

Here's what some known entries look like.
Clc1cnc(Oc2ccccc2-c2cc(C3CC3)on2)nc1 50
COc1cccc(Oc2ncc(Cl)cn2)c1-c1cc(C(F)(F)F)no1 30
Cc1cc(-c2ccccc2Oc2ncc(Cl)cn2)on1 95
Cc1cc(-c2ccccc2Oc2ncc(Cl)cn2)no1 70

Provide Plant response rating (scale 0 to 100), Blackgrass value for the following molecule: FCc1cc(-c2c(F)cccc2Oc2ncc(Cl)cn2)no1
60

====

# System: blackgrass (Alopecurus myosuroides)
# experiment notes: Test E pre-/postemergence plant response
# Assay type: in vivo
# assay conditions: pre-emergence, 125 g ai/ha, Preemergence, scale 0 to 100, read-out: Plant response rating, Blackgrass
quantity: pest or weed control at 125 g/ha (%)
Give the value, in units of %, as a plain number.

Determine its reported pest or weed control at 125 g/ha: FC(F)c1cc(-c2ccccc2Oc2ncc(Br)cn2)no1
65

====

# System: oilseed rape (Brassica napus)
# experiment notes: Test D pre-/postemergence plant response
# Assay type: in vivo
# assay conditions: Postemergence, 31 g ai/ha; scale 0 to 100 (0 no effect, 100 complete control)
We begin with a simple list: items and their reported Oilseed Rape plant response rating.

FC(F)(F)c1cc(-c2ccccc2Oc2ncc(Cl)cn2)ncn1 20
Cc1cc(-c2ccccc2Oc2ncc(Cl)cn2)no1 40
FC(F)Oc1cccc(Oc2ncc(Cl)cn2)c1-c1cc(C(F)F)on1 45

Below: the item to evaluate.
Hello, please tell me recorded Oilseed Rape plant response rating for this one: Fc1ccc(Oc2ncc(Cl)cn2)c(-c2cc(C(F)F)on2)c1F
50

====

# Lookup of reported pest or weed control at 31 g/ha keyed by entry
# System: large (Lg) crabgrass (Digitaria sanguinalis)
# experiment notes: Test D pre-/postemergence plant response
# Format: in vivo
# assay conditions: Digitaria sanguinalis, pre-emergence; Preemergence; 31 g ai/ha; scale 0 to 100 (0 no effect, 100 complete control); read-out: Plant response rating, Crabgrass, Large
Unit % implied. Number only.

FC(F)c1cc(-c2ccccc2Oc2ncc(Br)cn2)no1 95
Fc1cccc(Oc2ncc(Cl)cn2)c1-c1cc(C(F)(F)F)on1 100
FC(F)(F)c1cc(-c2ccccc2Oc2ncc(Cl)cn2)on1 98

Turning now to a further record.
Fill: pest or weed control at 31 g/ha (large (Lg) crabgrass (Digitaria sanguinalis)) for this molecule N#Cc1cccc(Oc2ncc(Cl)cn2)c1-c1cc(C(F)(F)F)ccn1
90

====

Each record here notes measured Plant response rating, Morningglory.
# Test system: morningglory (Ipomoea spp.)
# experiment notes: Test B pre-/postemergence plant response
# Assay type: in vivo
# assay conditions: Preemergence, 1000 g ai/ha; 0 to 100 scale (0 no effect, 100 complete control)
Could you respond with only the numeric value?

Solved entries (count: 3):
Clc1cnc(Oc2ccccc2-c2ncco2)nc1 0
Cn1ccc(-c2ccccc2Oc2ncc(Cl)cn2)n1 0
Clc1cnc(Oc2ccccc2-c2cnco2)nc1 0

Name the recorded Plant response rating, Morningglory of the item Clc1cnc(Oc2ccccc2-c2nnco2)nc1 in your answer.
0

====

# reported Plant response rating, Kochia; entries follow
# System: kochia (Kochia scoparia)
# experiment notes: Test B pre-/postemergence plant response
# Type: in vivo
# assay conditions: Postemergence, 500 g ai/ha; 0 to 100 scale (0 no effect, 100 complete control)
The answer should be written as a number, with no unit following it.

The examples below pair each entry with its known result.
Cn1ccnc1-c1ccccc1Oc1ncc(Cl)cn1 0
Clc1cnc(Oc2ccccc2-c2cc(Cl)ncn2)nc1 0
FC(F)c1cc(-c2ccccc2Oc2ncc(Cl)cn2)on1 100
FC(F)c1cc(-c2ccccc2Oc2ncc(Cl)cn2)ncn1 100

Look up and state reported Plant response rating, Kochia for N#Cc1cccc(Oc2ncc(Cl)cn2)c1-c1cc(C(F)F)on1
100

====

Reported pest or weed control at 62 g/ha values for a set of compounds
# Tested on: galium (catchweed bedstraw, Galium aparine)
# experiment notes: Test E pre-/postemergence plant response
# Type: in vivo
# assay conditions: pre-emergence, 62 g ai/ha, Preemergence, scale 0 to 100, read-out: Plant response rating, Galium
Give your result in % as a bare value.

Field: example entries. Status: answers known.
Fc1cccc(Oc2ncc(Cl)cn2)c1-c1cc(C(F)(F)F)on1 100
FC(F)c1cc(-c2ccccc2Oc2ncc(Cl)cn2)on1 60
FC(F)(F)c1cc(-c2ccccc2Oc2ncc(Cl)cn2)no1 55

Moving on to another compound below.
Answer with reported pest or weed control at 62 g/ha of Fc1cccc(Oc2ncc(Br)cn2)c1-c1cc(C(F)F)no1
100

====

# Tested on: small-flower umbrella sedge (Cyperus difformis)
# experiment notes: Test C flooded paddy test plant response
# Assay type: in vivo
# assay conditions: Cyperus difformis; Flood, 250 g ai/ha; scale of 0 to 100 where 0 is no effect and 100 is complete control; 13 to 15 days; read-out: Sedge, Umbrella plant response rating
quantity: pest or weed control at 250 g/ha (%)
I only need the number, in %, no unit after it.

Fill in pest or weed control at 250 g/ha for N#Cc1cccc(Oc2ncc(Cl)cn2)c1-c1cc(C(F)(F)F)ccn1 [Compound 158] tested with small-flower umbrella sedge (Cyperus difformis).
0

Report pest or weed control at 250 g/ha on small-flower umbrella sedge (Cyperus difformis) for this entry: Fc1cccc(Oc2ncc(Br)cn2)c1-c1cc(C(F)F)no1 [Compound 145]
95

Find the measured pest or weed control at 250 g/ha of FC(F)(F)c1cc(-c2ccccc2Oc2ncc(Cl)cn2)on1 [Compound 63] with small-flower umbrella sedge (Cyperus difformis) as test system.
85

====

# Test system: ragweed (common ragweed, Ambrosia elatior)
# experiment notes: Test D pre-/postemergence plant response
# Format: in vivo
# assay conditions: Ambrosia artemisiifolia, post-emergence; Postemergence, 125 g ai/ha; scale 0 to 100, 0 no effect, 100 complete control; read-out: Plant response rating, Ragweed
quantity: pest or weed control at 125 g/ha (%)
Write it as a number; the unit % goes unstated.

The examples below pair each entry with its known result.
Fc1cccc(Oc2ncc(Cl)cn2)c1-c1cc(C(F)F)on1 90
FC(F)c1cc(-c2ccccc2Oc2ncc(Br)cn2)no1 65
Fc1cccc(Oc2ncc(Cl)cn2)c1-c1cc(C(F)(F)F)on1 55

Given FC(F)c1cc(-c2ccccc2Oc2ncc(Cl)cn2)on1 , report its pest or weed control at 125 g/ha on ragweed (common ragweed, Ambrosia elatior).
55

====

# System: lambsquarters (Chenopodium album)
# experiment notes: Test D pre-/postemergence plant response
# Assay type: in vivo
# assay conditions: Postemergence, 62 g ai/ha; scale 0 to 100, 0 no effect, 100 complete control
Reported Lambsquarters plant response rating by item:
Form field (numeric): enter value without unit.

Solved entries (count: 3):
Cc1cc(-c2c(F)cccc2Oc2ncc(Cl)cn2)on1 70
FCc1cc(-c2c(Br)cccc2Oc2ncc(Cl)cn2)no1 70
Clc1cnc(Oc2ccccc2-c2cc(C3CC3)on2)nc1 65

Provide one value: measured Lambsquarters plant response rating of Cc1cc(-c2c(F)cccc2Oc2ncc(Br)cn2)on1
80

Let me know recorded Lambsquarters plant response rating for FC(F)c1cc(-c2c(Cl)cccc2Oc2ncc(Cl)cn2)no1 , thanks.
75

====

# Test system: morningglory (Ipomoea coccinea)
# experiment notes: Test D pre-/postemergence plant response
# Format: in vivo
# assay conditions: Preemergence; 62 g ai/ha; scale 0 to 100 (0 no effect, 100 complete control)
Hi! Could you tag entries with Plant response rating, Morningglory below 60 as Satisfied, and those at or above as Not satisfied? Much appreciated.

The examples below pair each entry with its known result.
FC(F)(Cl)c1cc(-c2ccccc2Oc2ncc(Cl)cn2)no1 Satisfied
FC(F)c1cc(-c2c(Cl)cccc2Oc2ncc(Cl)cn2)no1 Satisfied
N#Cc1cccc(Oc2ncc(Cl)cn2)c1-c1cc(C(F)F)on1 Satisfied
Fc1ccc(Oc2ncc(Cl)cn2)c(-c2cc(C(F)F)on2)c1F Not satisfied

I wonder whether Cc1cc(-c2c(F)cccc2Oc2ncc(Cl)cn2)on1 has Plant response rating, Morningglory below 60. Can you tell?
Satisfied

Please let me know if Fc1cccc(Oc2ncc(Br)cn2)c1-c1cc(C(F)F)on1 shows Plant response rating, Morningglory below 60.
Not satisfied

Data origin, for the record: patent US10131652B2
